Tested on: 188146-221-R-J1-PDC complex spheroid viability
Assay: Anticancer human tumor 188146-221-R-J1-PDC patient-derived colon adenocarcinoma cell line growth inhibition [POLQ]
Settings: second compound 0.0316 µM; first compound 3.16 µM; stronger effect = lower value
MEASURED_PROPERTY: viability, T/C

- COMPOUND: "COc1cc2cc(C(=O)CCC(=O)O)sc2cc1OC + COC1C(OC(N)=O)C(O)C(Oc2ccc3c(O)c(NC(=O)c4ccc(O)c(CC=C(C)C)c4)c(=O)oc3c2C)OC1(C)C"
  TARGET_OR_SYSTEM: "188146-221-R-J1-PDC complex spheroid viability"
  viability, T/C: "107%"
- COMPOUND: "C#Cc1c(F)ccc2cc(O)cc(-c3ncc4c(N5CC6CCC(C5)N6)nc(OCC56CCCN5CC(F)C6)nc4c3F)c12 (stereo not given) + Cc1cccc(N(C)C(=O)C2C(O)CCN2c2nc(C)cc(C(F)(F)F)c2C#N)c1"
  TARGET_OR_SYSTEM: "188146-221-R-J1-PDC complex spheroid viability"
  viability, T/C: "88.6%"
- COMPOUND: "C=CC(=O)N1CCN(c2nc(=O)n(-c3c(C)ccnc3C(C)C)c3nc(-c4c(O)cccc4F)c(F)cc23)C(C)C1 (stereo not given) + COC1C(OC(N)=O)C(O)C(Oc2ccc3c(O)c(NC(=O)c4ccc(O)c(CC=C(C)C)c4)c(=O)oc3c2C)OC1(C)C"
  TARGET_OR_SYSTEM: "188146-221-R-J1-PDC complex spheroid viability"
  viability, T/C: "98.7%"
- COMPOUND: "O=C(c1cc(Cc2n[nH]c(=O)c3ccccc23)ccc1F)N1CCN(C(=O)C2CC2)CC1 + COC1C(OC(N)=O)C(O)C(Oc2ccc3c(O)c(NC(=O)c4ccc(O)c(CC=C(C)C)c4)c(=O)oc3c2C)OC1(C)C"
  TARGET_OR_SYSTEM: "188146-221-R-J1-PDC complex spheroid viability"
  viability, T/C: "99.5%"

Turning to the following compound.
Query block: For the compound shown here, CC1COCCN1c1cc(C2(S(C)(=N)=O)CC2)nc(-c2ccnc3[nH]ccc23)n1 (stereo not given) + Cc1cccc(N(C)C(=O)C2C(O)CCN2c2nc(C)cc(C(F)(F)F)c2C#N)c1 , give the reported viability, T/C.
Result block: 65.2%

###

System: 188146-221-R-J1-PDC complex spheroid viability
Assay: Anticancer human tumor 188146-221-R-J1-PDC cell line growth inhibition [POLQ];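 further: spheroids exposed to compounds for seven days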
Details: curve of first compound; second compound 3.16 µM
MEASURED_PROPERTY: pIC50
Give bare numbers, as −log10 of the molar value.

// worked examples, pIC50 included
- MOLECULE: "COc1cccc(OCCCN)c1-c1cc(Nc2cnc(C#N)cn2)n[nH]1 + COC1C(OC(N)=O)C(O)C(Oc2ccc3c(O)c(NC(=O)c4ccc(O)c(CC=C(C)C)c4)c(=O)oc3c2C)OC1(C)C"
  RESULT_VALUE: 7.56
- MOLECULE: "COc1ccc([C@@H](O)c2cc(-c3ncnc4cc(N5CCOCC5)ccc34)c(F)cc2Cl)nn1 + COC1C(OC(N)=O)C(O)C(Oc2ccc3c(O)c(NC(=O)c4ccc(O)c(CC=C(C)C)c4)c(=O)oc3c2C)OC1(C)C"
  RESULT_VALUE: 5.24

Turning to the following molecule.
Query block: For the molecule shown here, CCc1cc2c(N3CCc4c(cc(Cn5ccnc5)cc4-c4cn(C)nc4C(F)(F)F)C3=O)cc(C)nc2c(OC)n1 + Cc1cccc(N(C)C(=O)C2C(O)CCN2c2nc(C)cc(C(F)(F)F)c2C#N)c1 , give the reported pIC50.
Result block: 5.18
